Tested on: cocklebur (Xanthium strumarium)
Assay: Test B pre-/postemergence plant response
Type: in vivo
Settings: Postemergence, 62 g ai/ha; scale 0 (no effect) to 100 (complete control); 13 to 15 days
compounds and their reported Plant response rating, Cocklebur
Quick one: just the number, no unit, thanks!

| SMI | ENDPOINT_VALUE |
| --- | --- |
| Cc1cccc(-n2c(-c3ccccc3)ncc(C(=O)C3=C(O)CCCC3=O)c2=O)c1C | 95 |
| Cc1cccc(-n2c(-c3ccccc3)ncc(C(=O)C3=C(O)CCCC3=O)c2=O)c1F | 85 |

Return reported Plant response rating, Cocklebur. Input compound: `CCCn1c(-c2ccccc2)ncc(C(=O)C2=C(O)CCCC2=O)c1=O`
85

Return reported Plant response rating, Cocklebur. Input compound: `Cc1cccc(-n2c(-c3cccc(Cl)c3)ncc(C(=O)C3=C(O)CCCC3=O)c2=O)c1`
50

Return reported Plant response rating, Cocklebur. Input compound: `Cc1ccc(-n2c(-c3cccc(Cl)c3)ncc(C(=O)C3=C(O)CCCC3=O)c2=O)cc1`
75

* * *

Test system: goosegrass (Eleusine indica)
Assay: Test B pre-/postemergence plant response
Format: in vivo
Conditions: Postemergence, 250 g ai/ha; scale 0 to 100 (0 no effect, 100 complete control); 13 to 15 days
molecules and their reported Plant response rating, Goosegrass
Quick one: just the number, no unit, thanks!

Given CCCn1c(-c2cc(Cl)cc(Cl)c2)ncc(C(=O)C2=C(O)CCCC2=O)c1=O [Compound 173] , report its Plant response rating, Goosegrass on goosegrass (Eleusine indica).
100

Given O=C1CCCC(O)=C1C(=O)c1cnc(-c2ccccc2)n(C2CCCCCC2)c1=O [Compound 130] , report its Plant response rating, Goosegrass on goosegrass (Eleusine indica).
95

* * *

System: windgrass (Apera spica-venti)
Experiment: Test B postemergence plant response
Format: in vivo
Settings: 62 g ai/ha, postemergence; 0 is no effect, 100 is complete control; 13 to 15 days
compounds and their reported Windgrass plant response rating (0 to 100 scale)
Quick one: just the number, no unit, thanks!

| COMPOUND | ENDPOINT_VALUE |
| --- | --- |
| O=C1CCCC(O)=C1C(=O)c1cnc(-c2cccs2)n(CC2CCCO2)c1=O (stereo not drawn) | 40 |
| O=C1CCCC(O)=C1C(=O)c1cnc(-c2ccccc2)n(C2CCOCC2)c1=O | 60 |
| CCCc1ncc(C(=O)C2=C(O)CCCC2=O)c(=O)n1-c1cccc(C)c1 | 65 |
| CCCCCCn1c(-c2ccccc2)ncc(C(=O)C2=C(O)CCCC2=O)c1=O | 40 |
| COCCCn1c(-c2cccc(F)c2)ncc(C(=O)C2=C(O)CCCC2=O)c1=O | 10 |

Return reported Windgrass plant response rating (0 to 100 scale). Input compound: `CCCc1ncc(C(=O)C2=C(O)CCCC2=O)c(=O)n1CCC`
20

* * *

molecules and their reported Plant response rating, Barley
Test system: winter barley (Hordeum vulgare)
Assay: Test B postemergence plant response
Format: in vivo
Conditions: Postemergence, 125 g ai/ha; visual rating after 13 to 15 days, scale 0 (no effect) to 100 (complete control)
Quick one: just the number, no unit, thanks!

Return reported Plant response rating, Barley. Input molecule: `O=C1CCCC(O)=C1C(=O)c1cnc(C2CC2)n(-c2ccccc2)c1=O`
0

* * *

System: winter barley (Hordeum vulgare)
Assay: Test B postemergence plant response
Type: in vivo
Details: Postemergence, 62 g ai/ha; scale 0 (no effect) to 100 (complete control); 13 to 15 days
Text: […] Treated plants and controls were maintained in a greenhouse for 13 to 15 days, after which time all treated plants were visually evaluated and compared to controls. […]
RECORDED_ENDPOINT: Plant response rating, Barley
Quick one: just the number, no unit, thanks!

Study these solved cases before continuing.
| MOLECULE | ENDPOINT_VALUE |
| --- | --- |
| CCn1c(-c2ccccc2)ncc(C(=O)C2=C(O)CCCC2=O)c1=O [Compound 49] | 0 |
| O=C1CCCC(O)=C1C(=O)c1cnc(-c2ccccc2)n(-c2ccccc2Br)c1=O [Compound 37] | 0 |
| Cc1cc(F)ccc1-n1c(-c2ccccc2)ncc(C(=O)C2=C(O)CCCC2=O)c1=O [Compound 48] | 5 |

Return reported Plant response rating, Barley. Input molecule: Cc1cccc(-n2c(-c3cccc(Cl)c3)ncc(C(=O)C3=C(O)CCCC3=O)c2=O)c1 [Compound 45]
5

* * *

Tested on: windgrass (Apera spica-venti)
Experiment: Test B postemergence plant response
Type: in vivo
Settings: Postemergence, 250 g ai/ha; scale 0 to 100 (0 no effect, 100 complete control); 13 to 15 days
Description: […] Treated plants and controls were maintained in a greenhouse for 13 to 15 days, after which time all treated plants were visually evaluated and compared to controls. […]
RECORDED_ENDPOINT: Plant response rating, Windgrass

Study these solved cases before continuing.
| MOLECULE | Plant response rating, Windgrass |
| --- | --- |
| O=C1CCCC(O)=C1C(=O)c1cnc(-c2ccsc2)n(C2CCOCC2)c1=O | 65 |
| CCc1cccc(-n2c(-c3ccccc3)ncc(C(=O)C3=C(O)CCCC3=O)c2=O)c1 | 60 |
| CCn1c(-c2cccc(F)c2)ncc(C(=O)C2=C(O)C3CCC(C3)C2=O)c1=O (stereo not shown) | 85 |

Turning to the following molecule.
Return reported Plant response rating, Windgrass. Input molecule: CCCCn1c(-c2ccccc2)ncc(C(=O)C2=C(O)C3CCC(C3)C2=O)c1=O (stereo not shown)
98

* * *

Test system: kochia (Kochia scoparia)
Assay: Test B pre-/postemergence plant response
Format: in vivo
Conditions: Postemergence, 31 g ai/ha; 0 to 100 scale (0 no effect, 100 complete control)
Rule: Plant response rating, Kochia under 10 gives no (0), otherwise yes (1).

| COMPOUND | ASSIGNED_CLASS |
| --- | --- |
| Cc1ccc(-n2c(-c3cc(F)cc(F)c3)ncc(C(=O)C3=C(O)CCCC3=O)c2=O)cc1 [Compound 162] | yes (1) |

Assess whether reported Plant response rating, Kochia for CCCCn1c(-c2ccccc2)ncc(C(=O)C2=C(O)C3CCC(C3)C2=O)c1=O (centres unmarked) [Compound 240] sits at 10 or higher.
yes (1)

Assess whether reported Plant response rating, Kochia for CCn1c(-c2cc(F)cc(F)c2)ncc(C(=O)C2=C(O)CCCC2=O)c1=O [Compound 122] sits at 10 or higher.
no (0)

Assess whether reported Plant response rating, Kochia for O=C1CCCC(O)=C1C(=O)c1cnc(-c2ccccc2)n(C2CCCCCC2)c1=O [Compound 130] sits at 10 or higher.
yes (1)

* * *

Tested on: wild oat (Avena fatua)
Assay: Test B pre-/postemergence plant response
Type: in vivo
Settings: 31 g ai/ha, postemergence; scale 0 to 100, 0 is no effect, 100 is complete control
Text: […] Treated plants and controls were maintained in a greenhouse for 13 to 15 days, after which time all treated plants were visually evaluated and compared to controls. […]
RECORDED_ENDPOINT: Plant response rating, Oat, Wild
Quick one: just the number, no unit, thanks!

| COMPOUND | RECORDED_ENDPOINT | ENDPOINT_VALUE |
| --- | --- | --- |
| CCCn1c(-c2ccsc2)ncc(C(=O)C2=C(O)CCCC2=O)c1=O [Compound 93] | Plant response rating, Oat, Wild | 0 |

Return reported Plant response rating, Oat, Wild. Input compound: O=C1CCCC(O)=C1C(=O)c1cnc(-c2ccc(Br)cc2)n(-c2ccccc2)c1=O [Compound 70]
55

Return reported Plant response rating, Oat, Wild. Input compound: CCCCCCn1c(-c2ccccc2)ncc(C(=O)C2=C(O)CCCC2=O)c1=O [Compound 94]
0

* * *

Test system: kochia (Kochia scoparia)
Test: Test B pre-/postemergence plant response
Assay type: in vivo
Conditions: 31 g ai/ha, postemergence; scale 0 to 100, 0 is no effect, 100 is complete control
molecules and their reported Plant response rating, Kochia
Quick one: just the number, no unit, thanks!

Study these solved cases before continuing.
| MOLECULE | ENDPOINT_VALUE |
| --- | --- |
| CC(C)Cc1ncc(C(=O)C2=C(O)CCCC2=O)c(=O)n1-c1ccccc1 | 70 |
| CCOCCn1c(-c2ccccc2)ncc(C(=O)C2=C(O)CCCC2=O)c1=O | 65 |
| O=C1CCCC(O)=C1C(=O)c1cnc(-c2ccsc2)n(CC2CCCO2)c1=O (stereo not shown) | 65 |
| O=C1CCCC(O)=C1C(=O)c1cnc(-c2cccs2)n(CC2CCCO2)c1=O (stereo not shown) | 70 |

Return reported Plant response rating, Kochia. Input molecule: `O=C1CCCC(O)=C1C(=O)c1cnc(C2CC2)n(-c2ccccc2)c1=O`
100

Return reported Plant response rating, Kochia. Input molecule: `COCCn1c(-c2cccs2)ncc(C(=O)C2=C(O)CCCC2=O)c1=O`
70

Return reported Plant response rating, Kochia. Input molecule: `CCCCc1ncc(C(=O)C2=C(O)CCCC2=O)c(=O)n1-c1ccccc1C`
10
